pIC50: −log10 of the molar value.
Reported pIC50 values, UniProt:P07339.
Sequence (P07339 65-162 limits assumed): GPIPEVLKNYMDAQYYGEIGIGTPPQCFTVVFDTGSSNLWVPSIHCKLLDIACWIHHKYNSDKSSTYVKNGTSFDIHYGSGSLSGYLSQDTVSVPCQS
Sequence (P07339 169-412 limits assumed): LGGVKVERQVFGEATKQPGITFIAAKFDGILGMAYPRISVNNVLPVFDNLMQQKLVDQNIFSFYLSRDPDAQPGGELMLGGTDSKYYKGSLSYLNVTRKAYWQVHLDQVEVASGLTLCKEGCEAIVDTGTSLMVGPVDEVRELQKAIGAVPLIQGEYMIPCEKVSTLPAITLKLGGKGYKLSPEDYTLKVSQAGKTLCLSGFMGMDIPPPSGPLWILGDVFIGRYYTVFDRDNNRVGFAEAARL
Quantity: pIC50

In the examples that follow, each entry is paired with its recorded pIC50.
{"Compound": "CN1C(=O)C(c2ccncc2)(c2cccc(-c3ccsc3)c2)N=C1N (centres undefined)", "pIC50": 4.50}
{"Compound": "CN1C(=O)C(c2ccncc2)(c2cccc(-c3cccc(OC(F)(F)F)c3)c2)N=C1N (centres undefined)", "pIC50": 4.85}

I. CN1C(=O)C(c2ccncc2)(c2cccc(-c3cccc(F)c3)c2)N=C1N (centres undefined)
II. COc1cccc(-c2cccc(C3(c4ccncc4)N=C(N)N(C)C3=O)c2)c1 (centres undefined)
Of the pair I and II , name the member with the lesser recorded pIC50. State the label of the item chosen. I
(I: 4.68, II: 4.91)
